Test system: HCT116
Experiment: efficacy (fitted maximal change in viability relative to DMSO control); higher = less cytotoxic (negative = loss of viability)
Settings: 48 h
Decide by efficacy: equal to or exceeding -60% means y, less means n.

Illustrative cases are given below, each with its answer.
COCCOc1nc(-c2ccc(Cl)c(Cl)c2)n(-c2ccc(NC(=O)CCl)cc2)n1 : n
O=C(CBr)N1CC([N+](=O)[O-])([N+](=O)[O-])C1 : y
C[C@@H](N)c1ccc(C(=O)Nc2ccnc3[nH]ccc23)cc1 : n
CC[C@H](NC1=C2[NH]C=NC2=NC=N1)/C3=C(/C(=O)C4=CC=CC=C4O3)C5=CC=CC(=C5)F : y

For this compound, is measured efficacy -60% or higher? `COc1cc2c(N3CCN(C(=O)Nc4ccc(OC(C)C)cc4)CC3)ncnc2cc1OCCCN1CCCCC1`
n

Check the entry `O=C1c2cccc(O)c2C(=O)c2c(O)cc(CO)cc21` : does efficacy equal or exceed -60%?
y

Hello, I need to know if C=CC(=O)N1CCC(C2CCNc3c(C(N)=O)c(-c4ccc(Oc5ccccc5)cc4)nn32)CC1 (centres undefined) has measured efficacy not below -60%. Thanks!
n

State whether the measured efficacy reaches -60%, counting equality as reaching it, for Cl.Cl.Cl.O[C@@H](COc1cccc2ncccc12)CN1CCN([C@@H]2c3ccccc3[C@@H]3[C@H](c4ccccc42)C3(F)F)CC1 [Zosuquidar trihydrochloride]
n

* * *

System: HCT116
Assay: efficacy (fitted maximal change in viability relative to DMSO control); higher = less cytotoxic (negative = loss of viability)
Details: 48 h
Assign class by efficacy: not lower than -70% means Yes; lower than -70% means No.

O=C(c1ccc(C(=O)N2CCC(N3CCCC3)CC2)c(Nc2ccccc2)c1)N1CCC(N2CCCC2)CC1 : Yes
CCCCCCCCCCCCCCCCOCCCO[P](O)(=O)COC(CO)CN1/C=C\C(=N/C1=O)N (centres undefined) : Yes
N/C1=N/C(=O)C/2=C(NC[C@@H](CNC3=CC=C(C=C3)C(=O)N[C@@H](CCC([O-])=O)C([O-])=O)N2C=O)\N1 [Calcium folinate] : Yes
COc1cc(C(C)C)c(Oc2cnc(NC(CO)CO)nc2N)cc1I : Yes
COC1=CC=C2[N](CCCN(C)C)C=C(C2=C1)C/3=C(/C(=O)NC3=O)C4=C[NH]C5=C4C=CC=C5 : No

Has `O=C1c2ccccc2-[n+]2ccc3c([nH]c4ccccc43)c21` a recorded efficacy greater than or equal to -70%?
No

Check the entry `COc1cc2nc(N3CCCN(C)CC3)nc(NC3CCN(Cc4ccccc4)CC3)c2cc1OC` : does efficacy equal or exceed -70%?
No

* * *

Tested on: HCT116;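 note: Luminescence-based viability readout, five doses per compound, normalized against on-plate DMSO and empty-well controls, followed by dose-response curve fitting for every drug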
Assay: efficacy (fitted maximal change in viability relative to DMSO control); higher = less cytotoxic (negative = loss of viability)
Conditions: 48 h
Where a name gives a salt, the structure may show the parent alone.
Outcome label depends on efficacy relative to -20%: at/above gives 1, below gives -1.

FC1=CC=C(CN2\C=C/C=C(/C(=O)N[C@@H](COC3=CC4=C(NC(=O)N4)C=C3)C5=CC=CC=C5)C2=O)C=C1F : -1
COC1=CC=C(C=C1O)C/2=C/C(=O)C3=C(O2)C=C(O[C@@H]4O[C@H](CO[C@@H]5O[C@@H](C)[C@H](O)[C@@H](O)[C@H]5O)[C@@H](O)[C@H](O)[C@H]4O)C=C3O : 1
CC1(CN2CCC(n3c(=O)[nH]c4ccccc43)CC2)OCc2ccccc2-n2cccc21 (stereo not given) [Zaldaride maleate] : -1

# bool: efficacy of `CN1\C(=C(\O)C2=C(C=CS2)[S+]1([O-])=O)C(=O)NC3=CC=CC=N3` >= -20%
1

API: above_or_equal(metric=efficacy, cutoff=-20%) for item O=C(CCCCCCC(=O)Nc1ccccc1)NO [Vorinostat (SAHA)]
-1

Kindly determine if efficacy recorded for `C[S+](=O)([O-])c1ccc(-c2nnc(/C=C/c3nnc(-c4ccc(C#N)cc4)o3)n2-c2ccccc2Cl)nc1` is above or exactly -20%.
-1

Decide: efficacy of `CCCCn1c(=O)n(Cc2ccccc2F)c(=O)c2nc(Cc3ccc(NC(C)=O)cc3)[nH]c21` >= -20%?
1

Determine whether measured efficacy meets or exceeds -20% for `CC(C)Oc1ccc2c(=O)c(-c3ccccc3)coc2c1`
-1
